molecular target: human ferroportin (Homo sapiens, UniProt Q9NP59); construct: luciferase reporter (read with the Nano-Glo Luciferase Assay System); expressed in transfected cells; host or cells: CHO cells, stably transfected, expression induced with doxycycline; assay: Biological in-vitro ferroportin internalization assay (luciferase reporter); type: cell-based; details: average pEC50; stably-transfected CHO cell line expressing human ferroportin tagged to a luciferase reporter; 6 h incubation with test compound
measurement-type: pEC50

### Prompt Please give the measured pEC50 for this compound: COc1ccc(NC(=O)CN(C)c2nc(-c3cc4cnccc4cn3)nc3c2CCC3)cn1
### Response 6.3

### Prompt Please give the measured pEC50 for this compound: C[C@@H](O)COc1ccnc(-c2nc3c(c(N(C)CC(=O)NC(C)(C)C)n2)CCC3)c1
### Response 7.7

### Prompt Please give the measured pEC50 for this compound: CN1CC[C@@H](Oc2ccnc(-c3nc4c(c(N(C)CC(=O)NC(C)(C)C)n3)CCC4)c2)C1
### Response 8.0

### Prompt Please give the measured pEC50 for this compound: CN(CC(=O)NC(C)(C)C)c1nc(-c2cc3cn[nH]c3cn2)nc2c1CCC2
### Response 7.9

### Prompt Please give the measured pEC50 for this compound: C[C@H](C(=O)NC(C)(C)C)N(C)c1nc(-c2cc(O[C@@H]3CCN(C)C3)ccn2)nc2c1CCC2
### Response 8.5

### Prompt Please give the measured pEC50 for this compound: Cc1ccnc(-c2nc3c(c(N(C)CC(=O)NC(C)(C)C)n2)CCCC3)c1
### Response 7.3

### Prompt Please give the measured pEC50 for this compound: CN(CC(=O)N(C)C(C)(C)C)c1nc(-c2cc(OC3COC3)ccn2)nc2c1CCC2
### Response 7.7

### Prompt Please give the measured pEC50 for this compound: CN(c1nc(-c2ccccn2)nc2c1CCC2)[C@H](COC(C)(C)C)C(=O)NC(C)(C)C
### Response 7.9

====

Hi there, I'd appreciate the recorded pEC50 for every entry that follows.
molecular target: human ferroportin (Homo sapiens, UniProt Q9NP59); construct: luciferase reporter (read with the Nano-Glo Luciferase Assay System); expressed in transfected cells; host or cells: CHO cells, stably transfected, expression induced with doxycycline; test: Biological in-vitro ferroportin internalization assay (luciferase reporter); format: cell-based; settings: average pEC50; stably-transfected CHO cell line expressing human ferroportin tagged to a luciferase reporter; 6 h incubation with test compound
Could you respond with only the numeric value?

### Prompt Please give the measured pEC50 for this compound: Cc1cc(OCCO)cc(-c2nc3c(c(N(C)CC(=O)NC(C)(C)C)n2)CCC3)n1
### Response 7.6

### Prompt Please give the measured pEC50 for this compound: COc1ccc(NC(=O)CN(C)c2nc(-c3cc4ncsc4cn3)nc3c2CCC3)cn1
### Response 6.8

### Prompt Please give the measured pEC50 for this compound: c1ccc(-c2nc3c(c(N4CCCc5ccccc54)n2)CCC3)nc1
### Response 6

### Prompt Please give the measured pEC50 for this compound: CCN(CC(=O)NC(C)(C)C)c1nc(-c2ccccn2)nc2c1CCC2
### Response 7.3

====

Molecular target: human ferroportin (Homo sapiens)
Construct: luciferase reporter (read with the Nano-Glo Luciferase Assay System); expressed in transfected cells; host or cells: CHO cells, stably transfected, expression induced with doxycycline
Sequence (Q9NP59 1-571): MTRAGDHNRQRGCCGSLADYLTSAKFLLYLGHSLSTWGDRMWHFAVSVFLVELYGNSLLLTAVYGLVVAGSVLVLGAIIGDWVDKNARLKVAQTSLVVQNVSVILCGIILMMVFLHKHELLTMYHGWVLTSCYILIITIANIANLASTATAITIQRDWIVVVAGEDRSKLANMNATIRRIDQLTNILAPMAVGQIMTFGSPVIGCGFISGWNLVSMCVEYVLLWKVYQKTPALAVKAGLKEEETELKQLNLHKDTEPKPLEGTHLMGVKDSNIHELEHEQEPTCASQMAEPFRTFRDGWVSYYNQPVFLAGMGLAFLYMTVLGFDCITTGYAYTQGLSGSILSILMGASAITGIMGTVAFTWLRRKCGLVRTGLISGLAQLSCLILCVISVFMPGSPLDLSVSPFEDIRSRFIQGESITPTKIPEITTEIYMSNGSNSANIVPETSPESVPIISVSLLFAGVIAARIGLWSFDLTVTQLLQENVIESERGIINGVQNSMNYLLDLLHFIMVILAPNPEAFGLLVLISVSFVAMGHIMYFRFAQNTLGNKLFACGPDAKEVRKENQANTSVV
Experiment: Biological in-vitro ferroportin internalization assay (luciferase reporter)
Assay type: cell-based
Details: average pEC50; stably-transfected CHO cell line expressing human ferroportin tagged to a luciferase reporter; 6 h incubation with test compound
Hi there, I'd appreciate the recorded pEC50 for every entry that follows.
Could you respond with only the numeric value?

### Prompt Please give the measured pEC50 for this compound: CN(CC(=O)NC(C)(C)C)c1nc(-c2cc(OCCN)ccn2)nc2c1CCC2
### Response 7.2

### Prompt Please give the measured pEC50 for this compound: CN(CC(=O)NC(C)(C)C)c1nc(-c2cc(OCC(O)C(F)(F)F)ccn2)nc2c1CCC2 (stereo not shown)
### Response 8.4

### Prompt Please give the measured pEC50 for this compound: COc1ccccc1NC(=O)CN(C)c1nc(-c2ccccn2)nc2c1CCC2
### Response 6.9

### Prompt Please give the measured pEC50 for this compound: CN1CC[C@@H](Oc2ccnc(-c3nc4c(c(N(C)CC(=O)NC5(C(F)(F)F)CC5)n3)CCC4)c2)C1
### Response 7.5
